- Assayed System: UniProt P00519
- Sequence (P00519 229-512): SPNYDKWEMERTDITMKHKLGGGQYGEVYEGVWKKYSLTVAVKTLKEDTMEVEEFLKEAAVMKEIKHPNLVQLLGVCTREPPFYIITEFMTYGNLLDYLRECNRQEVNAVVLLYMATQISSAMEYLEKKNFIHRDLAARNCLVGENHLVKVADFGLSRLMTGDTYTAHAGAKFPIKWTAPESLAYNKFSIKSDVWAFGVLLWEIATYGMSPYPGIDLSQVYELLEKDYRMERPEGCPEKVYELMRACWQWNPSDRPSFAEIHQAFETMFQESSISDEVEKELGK
- Protocol Details: Abl kinase assay A2 (as A1, 1.1 nM enzyme, 2 h pre-incubation, 0.5 mM ATP)
- Type: biochemical
- Test Parameters: Method A2; read-out: Abl Data (IC50)
- Procedure: IC50 values were calculated from a series of percent inhibition values determined at a range of inhibitor concentrations using software routines as implemented in the GraphPad Prism software package.
pIC50: −log10 of the molar value.
Our labelling divides records by pIC50 into ranges: range 1 (below 7), range 2 (7 to below 8), range 3 (8 or more)

INPUT: Which class is correct for the following molecule? CC(C)(C)c1cc(NC(=O)Nc2cc(F)cc(F)c2F)n(-c2cc(CC(=O)NCC(O)CO)c3ccccc3c2)n1 (centres unmarked)
OUTPUT: range 2

INPUT: Which class is correct for the following molecule? "CC(C)(C)c1cc(NC(=O)Nc2ccc(-c3cccc4c3CNC4=O)cc2)n(-c2ccc3c(c2)CCN3S(C)(=O)=O)n1"
OUTPUT: range 2

INPUT: Which class is correct for the following molecule? "CC(C)(C)c1cc(NC(=O)Nc2ccc(-c3cccc4c3CNC4=O)cc2)n(-c2cccc(-c3cn[nH]c3)c2)n1"
OUTPUT: range 2

INPUT: Which class is correct for the following molecule? "CNC(=O)c1cc(Oc2ccc(NC(=O)Nc3cc(C(C)(C)C)nn3-c3ccc4nc(NC)ccc4c3)cc2)ccn1"
OUTPUT: range 3

INPUT: Which class is correct for the following molecule? "CC(C)(C)c1cc(NC(=O)Nc2cccc(Cl)c2Cl)n(-c2ccc3[nH]ncc3c2)n1"
OUTPUT: range 1

INPUT: Which class is correct for the following molecule? "CNC(=O)c1cc(Oc2ccc(NC(=O)Nc3cc(C(C)(C)C)nn3-c3ccc4[nH]c(=O)ccc4c3)cc2)ccn1"
OUTPUT: range 3

INPUT: Which class is correct for the following molecule? CNC(=O)C1Cc2cc(-n3nc(C(C)(C)C)cc3NC(=O)Nc3cccc(Oc4cccnc4)c3)ccc2CN1 (centres unmarked)
OUTPUT: range 3

INPUT: Which class is correct for the following molecule? "Cc1ccc(NC(=O)Nc2cc(C(C)(C)C)nn2-c2ccc3nc(N4CCNCC4)ccc3c2)cc1Nc1nccc(-c2cccnc2)n1"
OUTPUT: range 3

INPUT: Which class is correct for the following molecule? "CC(C)(C)c1cc(NC(=O)Nc2cc(F)c(F)cc2F)n(-c2ccc3c(c2)CCNC3)n1"
OUTPUT: range 1

INPUT: Which class is correct for the following molecule? "CC(C)(C)c1cc(NC(=O)Nc2cccc(Oc3cncc(Cl)c3)c2)n(-c2ccc3c(c2)CCNC3)n1"
OUTPUT: range 3

* * *

- Assayed System: B-Raf(V599E) kinase (Homo sapiens, UniProt P15056, V600E)
- Sequence (P15056 with tags, fused parts or gaps V600E): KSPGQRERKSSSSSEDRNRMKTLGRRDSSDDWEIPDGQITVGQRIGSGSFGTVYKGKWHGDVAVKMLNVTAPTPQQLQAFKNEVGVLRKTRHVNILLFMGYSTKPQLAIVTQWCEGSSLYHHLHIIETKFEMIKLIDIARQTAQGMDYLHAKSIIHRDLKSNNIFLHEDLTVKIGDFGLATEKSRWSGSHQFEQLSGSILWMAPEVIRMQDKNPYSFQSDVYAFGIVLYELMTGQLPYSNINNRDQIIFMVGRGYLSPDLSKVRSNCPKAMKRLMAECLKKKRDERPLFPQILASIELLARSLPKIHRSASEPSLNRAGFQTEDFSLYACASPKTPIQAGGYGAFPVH
- Protocol Details: B-Raf(V599E) kinase assay B1 (construct 1, MEK1 substrate, coupled spectrophotometric)
- Type: biochemical
What pIC50 was measured for each of the following?
A value of pIC50 is the negative decimal logarithm of a concentration given in moles per litre.

INPUT: Jot down pIC50 (B-Raf(V599E) kinase (Homo sapiens, UniProt P15056, V600E)) of "CC(C)(C)c1cc(NC(=O)Nc2cccc(Cl)c2Cl)n(-c2ccc3c(c2)CCNC(=O)C3)n1" .
OUTPUT: 8.62

INPUT: Jot down pIC50 (B-Raf(V599E) kinase (Homo sapiens, UniProt P15056, V600E)) of "CNC(=O)[C@@H]1Cc2ccc(-n3nc(C(C)(C)C)cc3NC(=O)Nc3cccc(Cl)c3Cl)cc2CN1" .
OUTPUT: 8.52

INPUT: Jot down pIC50 (B-Raf(V599E) kinase (Homo sapiens, UniProt P15056, V600E)) of "CC(C)(C)c1cc(NC(=O)Nc2cccc(Oc3ccccc3)c2)n(-c2ccc3c(c2)CCC(=O)N3)n1" .
OUTPUT: 8.35

INPUT: Jot down pIC50 (B-Raf(V599E) kinase (Homo sapiens, UniProt P15056, V600E)) of "CC(C)(C)c1cc(NC(=O)Nc2cccc(Oc3cccnc3)c2)n(-c2ccc3ncccc3c2)n1" .
OUTPUT: 8.27

INPUT: Jot down pIC50 (B-Raf(V599E) kinase (Homo sapiens, UniProt P15056, V600E)) of "CC(C)(C)c1cc(NC(=O)Nc2cccc(Cl)c2Cl)n(-c2ccc3ncccc3c2)n1" .
OUTPUT: 8.74

INPUT: Jot down pIC50 (B-Raf(V599E) kinase (Homo sapiens, UniProt P15056, V600E)) of "CC(C)(C)c1cc(NC(=O)Nc2ccc(Cl)cc2)n(-c2cccc(CCN)c2)n1" .
OUTPUT: 7.07

INPUT: Jot down pIC50 (B-Raf(V599E) kinase (Homo sapiens, UniProt P15056, V600E)) of "CC(C)(C)c1cc(NC(=O)Nc2cc(F)c(F)cc2F)n(-c2cc(CN)c3ccccc3c2)n1" .
OUTPUT: 8.39

INPUT: Jot down pIC50 (B-Raf(V599E) kinase (Homo sapiens, UniProt P15056, V600E)) of "CC(C)(C)c1cc(NC(=O)Nc2ccc(Cl)cc2)n(-c2cc(CN)c3ccccc3c2)n1" .
OUTPUT: 7.62

INPUT: Jot down pIC50 (B-Raf(V599E) kinase (Homo sapiens, UniProt P15056, V600E)) of "CC(C)(C)c1cc(NC(=O)Nc2cccc(F)c2)n(-c2ccc3c(c2)CCNCC3)n1" .
OUTPUT: 6.98

INPUT: Jot down pIC50 (B-Raf(V599E) kinase (Homo sapiens, UniProt P15056, V600E)) of CC(Cc1cccc(-n2nc(C(C)(C)C)cc2NC(=O)Nc2cccc(Cl)c2Cl)c1)C(=O)O (stereo not shown) .
OUTPUT: 8.10

INPUT: Jot down pIC50 (B-Raf(V599E) kinase (Homo sapiens, UniProt P15056, V600E)) of "CC(C)(C)c1cc(NC(=O)Nc2ccccc2F)n(-c2cccc(CC(=O)O)c2)n1" .
OUTPUT: 8.00

INPUT: Jot down pIC50 (B-Raf(V599E) kinase (Homo sapiens, UniProt P15056, V600E)) of "CC(C)(C)c1cc(NC(=O)Nc2cccc(Cl)c2Cl)n(-c2ccc(CC(=O)N3CCS(=O)(=O)CC3)cc2)n1" .
OUTPUT: 7.26

INPUT: Jot down pIC50 (B-Raf(V599E) kinase (Homo sapiens, UniProt P15056, V600E)) of "CC(C)(C)c1cc(NC(=O)Nc2cccc(Cl)c2Cl)n(-c2ccc3c(c2)CN[C@H](C(=O)O)C3)n1" .
OUTPUT: 8.20

INPUT: Jot down pIC50 (B-Raf(V599E) kinase (Homo sapiens, UniProt P15056, V600E)) of "CC(C)(C)c1cc(NC(=O)Nc2cccc(Oc3ccccc3)c2)n(-c2ccc3c(c2)CCNC3)n1" .
OUTPUT: 8.34

INPUT: Jot down pIC50 (B-Raf(V599E) kinase (Homo sapiens, UniProt P15056, V600E)) of "Cn1c(=O)c(-c2cccc(NC(=O)Nc3cc(C4CCCC4)nn3-c3ccc4[nH]c(=O)ccc4c3)c2)cc2cncnc21" .
OUTPUT: 8.17

INPUT: Jot down pIC50 (B-Raf(V599E) kinase (Homo sapiens, UniProt P15056, V600E)) of "CC(C)(C)c1cc(NC(=O)Nc2cccc(Cl)c2Cl)n(-c2cc(CC(N)=O)c3ccccc3c2)n1" .
OUTPUT: 8.46

INPUT: Jot down pIC50 (B-Raf(V599E) kinase (Homo sapiens, UniProt P15056, V600E)) of "CNCCc1cccc(-n2nc(C(C)(C)C)cc2NC(=O)Nc2cccc(Cl)c2Cl)c1" .
OUTPUT: 8.47

INPUT: Jot down pIC50 (B-Raf(V599E) kinase (Homo sapiens, UniProt P15056, V600E)) of "CC(C)(C)c1cc(NC(=O)Nc2ccc(F)c(F)c2F)n(-c2ccc3c(c2)CCC(=O)N3)n1" .
OUTPUT: 8.39

INPUT: Jot down pIC50 (B-Raf(V599E) kinase (Homo sapiens, UniProt P15056, V600E)) of "CC(C)(C)c1cc(NC(=O)Nc2cc(F)c(F)cc2F)n(-c2cc(CC(N)=O)c3ccccc3c2)n1" .
OUTPUT: 8.39

INPUT: Jot down pIC50 (B-Raf(V599E) kinase (Homo sapiens, UniProt P15056, V600E)) of "CC(C)(C)c1cc(NC(=O)NC2CCCCC2)n(-c2ccc3c(c2)CNCC3)n1" .
OUTPUT: 6.48

INPUT: Jot down pIC50 (B-Raf(V599E) kinase (Homo sapiens, UniProt P15056, V600E)) of "CC(C)(C)c1cc(NC(=O)Nc2cccc(Cl)c2Cl)n(-c2cccc(C(=N)NO)c2)n1" .
OUTPUT: 8.37

INPUT: Jot down pIC50 (B-Raf(V599E) kinase (Homo sapiens, UniProt P15056, V600E)) of "CC(C)(C)c1cc(NC(=O)Nc2cccc(F)c2F)n(-c2ccc3c(c2)CCNC(=O)C3)n1" .
OUTPUT: 7.96

INPUT: Jot down pIC50 (B-Raf(V599E) kinase (Homo sapiens, UniProt P15056, V600E)) of "CC(C)(C)c1cc(NC(=O)Nc2cccc(Br)c2)n(-c2cccc(C#N)c2)n1" .
OUTPUT: 7.06

INPUT: Jot down pIC50 (B-Raf(V599E) kinase (Homo sapiens, UniProt P15056, V600E)) of "CC(C)(C)c1cc(NC(=O)Nc2cccc(Cl)c2Cl)n(-c2cc(CNC(=O)NS(C)(=O)=O)c3ccccc3c2)n1" .
OUTPUT: 8.38

INPUT: Jot down pIC50 (B-Raf(V599E) kinase (Homo sapiens, UniProt P15056, V600E)) of "CC(C)(C)c1cc(NC(=O)Nc2ccc(Cl)cc2)n(-c2cc(CC(=O)O)c3ccccc3c2)n1" .
OUTPUT: 8.04

INPUT: Jot down pIC50 (B-Raf(V599E) kinase (Homo sapiens, UniProt P15056, V600E)) of "CC(C)(C)c1cc(NC(=O)Nc2cccc(Cl)c2Cl)n(-c2cccc(CC(=O)O)c2)n1" .
OUTPUT: 8.49

INPUT: Jot down pIC50 (B-Raf(V599E) kinase (Homo sapiens, UniProt P15056, V600E)) of "CC(C)(C)c1cc(NC(=O)Nc2cccc(Cl)c2Cl)n(-c2cccc(CCO)c2)n1" .
OUTPUT: 8.64

INPUT: Jot down pIC50 (B-Raf(V599E) kinase (Homo sapiens, UniProt P15056, V600E)) of "CCOC(=O)c1ccc(-n2nc(C(C)(C)C)cc2NC(=O)Nc2cccc(Cl)c2Cl)cc1" .
OUTPUT: 7.39

INPUT: Jot down pIC50 (B-Raf(V599E) kinase (Homo sapiens, UniProt P15056, V600E)) of "CCOC(=O)Cc1cccc(-n2nc(C(C)(C)C)cc2NC(=O)Nc2cccc(Cl)c2Cl)c1" .
OUTPUT: 8.32

INPUT: Jot down pIC50 (B-Raf(V599E) kinase (Homo sapiens, UniProt P15056, V600E)) of "CC(C)(C)c1cc(NC(=O)Nc2ccc(F)cc2F)n(-c2cc(CO)c3ccccc3c2)n1" .
OUTPUT: 8.40

INPUT: Jot down pIC50 (B-Raf(V599E) kinase (Homo sapiens, UniProt P15056, V600E)) of "CC(C)(C)c1cc(NC(=O)Nc2ccc(Cl)cc2)n(-c2cccc(CN3C(=O)C(=O)NS3(=O)=O)c2)n1" .
OUTPUT: 6.77
